# credit: patent US12448389B2

- test system: SMARCA4-HiBiT (Homo sapiens, UniProt P51532)
- Construct: SMARCA4-HiBiT knock-in Hela monoclonal cell (CS3023226); host or cells: HeLa monoclonal knock-in line (CRISPR HiBiT knock-in at the endogenous locus, heterozygous)
- Sequence (P51532 whole entry): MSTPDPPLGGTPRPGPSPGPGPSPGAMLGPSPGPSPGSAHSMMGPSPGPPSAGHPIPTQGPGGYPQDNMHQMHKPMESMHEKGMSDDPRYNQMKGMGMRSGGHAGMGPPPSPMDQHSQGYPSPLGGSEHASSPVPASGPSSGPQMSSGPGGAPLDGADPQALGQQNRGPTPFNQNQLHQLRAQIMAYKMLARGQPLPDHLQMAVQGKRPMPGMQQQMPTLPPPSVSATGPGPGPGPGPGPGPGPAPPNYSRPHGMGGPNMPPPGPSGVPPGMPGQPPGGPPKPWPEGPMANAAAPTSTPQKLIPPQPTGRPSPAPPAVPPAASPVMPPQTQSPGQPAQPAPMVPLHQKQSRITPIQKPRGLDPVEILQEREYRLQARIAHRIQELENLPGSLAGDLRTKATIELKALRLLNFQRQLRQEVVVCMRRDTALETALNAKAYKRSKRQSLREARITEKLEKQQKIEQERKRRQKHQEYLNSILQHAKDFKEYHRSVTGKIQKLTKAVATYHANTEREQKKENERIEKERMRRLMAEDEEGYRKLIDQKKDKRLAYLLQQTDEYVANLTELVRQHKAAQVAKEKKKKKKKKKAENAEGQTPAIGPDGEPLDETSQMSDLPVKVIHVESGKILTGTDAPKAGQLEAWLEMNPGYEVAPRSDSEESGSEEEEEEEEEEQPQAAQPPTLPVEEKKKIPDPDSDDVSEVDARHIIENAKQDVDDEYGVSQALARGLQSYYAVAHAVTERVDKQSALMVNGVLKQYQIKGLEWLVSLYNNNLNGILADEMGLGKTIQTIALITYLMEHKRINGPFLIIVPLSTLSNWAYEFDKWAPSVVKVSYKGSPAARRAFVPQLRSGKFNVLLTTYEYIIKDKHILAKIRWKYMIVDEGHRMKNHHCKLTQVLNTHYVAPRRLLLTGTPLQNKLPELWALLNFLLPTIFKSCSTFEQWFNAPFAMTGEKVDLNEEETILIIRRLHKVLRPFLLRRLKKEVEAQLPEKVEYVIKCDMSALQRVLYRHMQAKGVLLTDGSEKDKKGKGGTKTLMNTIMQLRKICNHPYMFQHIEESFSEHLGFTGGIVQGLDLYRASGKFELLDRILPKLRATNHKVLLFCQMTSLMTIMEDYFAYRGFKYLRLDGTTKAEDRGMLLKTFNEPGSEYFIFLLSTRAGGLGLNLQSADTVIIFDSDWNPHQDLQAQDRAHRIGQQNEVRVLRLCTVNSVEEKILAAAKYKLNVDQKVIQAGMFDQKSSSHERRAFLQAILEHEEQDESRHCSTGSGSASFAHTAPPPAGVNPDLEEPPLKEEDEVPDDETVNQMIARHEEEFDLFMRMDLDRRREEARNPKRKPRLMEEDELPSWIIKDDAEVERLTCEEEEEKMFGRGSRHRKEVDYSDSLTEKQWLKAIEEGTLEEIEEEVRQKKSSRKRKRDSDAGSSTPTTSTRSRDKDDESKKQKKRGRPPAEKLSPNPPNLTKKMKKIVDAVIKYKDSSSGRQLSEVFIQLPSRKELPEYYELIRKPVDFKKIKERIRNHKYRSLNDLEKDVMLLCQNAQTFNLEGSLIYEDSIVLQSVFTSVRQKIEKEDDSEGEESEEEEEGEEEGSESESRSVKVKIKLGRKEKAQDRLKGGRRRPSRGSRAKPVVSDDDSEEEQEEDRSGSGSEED
- test summary: SMARCA4 HiBiT degradation assay in HeLa cells
- Type: cell-based
- conditions used: HeLa, 18 hours incubation, read-out: HeLa-HiBit-SM4 Dmax (%)
measured quantity: Dmax

Here are 5 molecules together with their reported answers.
Consider the molecule CC1CC(CN2CCN3c4cc(-c5ccccc5O)nnc4NC[C@H]3C2)CCN1CC1CCN(c2ccc3c(c2)C(=O)N(C2CCC(=O)NC2=O)C3=O)CC1 (stereo partly shown) and give its measured Dmax. > 85%

Next: O=C1CCC(N2C(=O)c3ccc(NCCN4C[C@@H]5[C@H](C4)[C@H]5CN4CCN5c6cc(-c7ccccc7O)nnc6NC[C@H]5C4)cc3C2=O)C(=O)N1 (stereo partly shown) 75 to 85%

Param item: O=C1CCC(N2C(=O)c3ccc(N4CCC(CNC5CCC(CN6CCN7c8cc(-c9ccccc9O)nnc8NC[C@H]7C6)CC5)CC4)cc3C2=O)C(=O)N1 (stereo partly shown) > 85%

Now consider O=C1CCC(N2C(=O)c3ccc(N4CCC(O)(CN5C[C@@H]6[C@@H](CN7CCN8c9cc(-c%10ccccc%10O)nnc9NC[C@H]8C7)[C@@H]6C5)CC4)cc3C2=O)C(=O)N1 (stereo partly shown) . 50 to 75%

Also CN(CCN1CCC(CN2CCN3c4cc(-c5ccccc5O)nnc4NC[C@H]3C2)CC1)c1ccc2c(c1)C(=O)N(C1CCC(=O)NC1=O)C2=O (stereo partly shown) , if possible. 50 to 75%

New cases:
// lookup Dmax for O=C1CCC(N2C(=O)c3ccc(N4CCC(CN5CCC(N6CCN7c8cc(-c9ccccc9O)nnc8NC[C@H]7C6)CC5)CC4)cc3C2=O)C(=O)N1 (stereo partly shown) > 85%

What about O=C1CCC(N2Cc3cc(N4CCN(CC5CCN(CCN6CCN7c8cc(-c9ccccc9O)nnc8NC[C@H]7C6)CC5)CC4)ccc3C2=O)C(=O)N1 (stereo partly shown) ? > 85%

Thanks! And O=C1CCC(N2C(=O)c3cccc(N4CCC(CCCN5CCC(N6CCN7c8cc(-c9ccccc9O)nnc8NC[C@H]7C6)C(F)C5)CC4)c3C2=O)C(=O)N1 (stereo partly shown) ? 50 to 75%

Input O=C1CCC(N2C(=O)c3ccc(N4CCC(CN5CC6CC(CN7CCN8c9cc(-c%10ccccc%10O)nnc9NC[C@H]8C7)C6C5)CC4)cc3C2=O)C(=O)N1 (stereo partly shown) 50 to 75%

Now give it for CCC1CN(CC2CCN(c3ccc4c(c3)C(=O)N(C3CCC(=O)NC3=O)C4)CC2)CCN1C(=O)N1CCN2c3cc(-c4ccccc4O)nnc3NC[C@H]2C1 (stereo partly shown) too. > 85%

Request: O=C1CCC(N2C(=O)c3ccc(N4CCC(CN5CC6COCC(C5)C6CN5CCN6c7cc(-c8ccccc8O)nnc7NC[C@H]6C5)CC4)cc3C2=O)C(=O)N1 (stereo partly shown) 75 to 85%

// query: O=C1CCC(N2Cc3cc(OCCN4CCCC(CN5CCN6c7cc(-c8ccccc8O)nnc7NC[C@H]6C5)C4)ccc3C2=O)C(=O)N1 (stereo partly shown) ≤ 50%
